B1: FUT8 (parent)
chain: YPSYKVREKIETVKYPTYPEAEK

Variants of: B1
Test: protein stability index of a GFP-peptide fusion (GPS, HEK-293T) (PSI 1-6); higher = more stable;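 further: lentivirally expressed fusions sorted by FACS into six bins by GFP to DsRed ratio, PSI derived from sequencing read proportions per bin multiplied by bin number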
Details: c terminus: native
Test Readout: protein stability index
Enter a number only.

Just so you know, measured protein stability index for "K23Q" came out at 4.04

Query "K5A" yields protein stability index of 3.92

Just so you know, measured protein stability index for "K23G" came out at 3.96

The recorded protein stability index for entry "K14E" equals 4.03
